Test Target: SMARCA4 (Homo sapiens)
Construct: SMARCA4-HiBiT knock-in Hela monoclonal cell (CS3023226) were purchased from Promega; host or cells: HeLa (CRISPR HiBiT knock-in monoclonal line, heterozygous)
Sequence (P51532 whole entry): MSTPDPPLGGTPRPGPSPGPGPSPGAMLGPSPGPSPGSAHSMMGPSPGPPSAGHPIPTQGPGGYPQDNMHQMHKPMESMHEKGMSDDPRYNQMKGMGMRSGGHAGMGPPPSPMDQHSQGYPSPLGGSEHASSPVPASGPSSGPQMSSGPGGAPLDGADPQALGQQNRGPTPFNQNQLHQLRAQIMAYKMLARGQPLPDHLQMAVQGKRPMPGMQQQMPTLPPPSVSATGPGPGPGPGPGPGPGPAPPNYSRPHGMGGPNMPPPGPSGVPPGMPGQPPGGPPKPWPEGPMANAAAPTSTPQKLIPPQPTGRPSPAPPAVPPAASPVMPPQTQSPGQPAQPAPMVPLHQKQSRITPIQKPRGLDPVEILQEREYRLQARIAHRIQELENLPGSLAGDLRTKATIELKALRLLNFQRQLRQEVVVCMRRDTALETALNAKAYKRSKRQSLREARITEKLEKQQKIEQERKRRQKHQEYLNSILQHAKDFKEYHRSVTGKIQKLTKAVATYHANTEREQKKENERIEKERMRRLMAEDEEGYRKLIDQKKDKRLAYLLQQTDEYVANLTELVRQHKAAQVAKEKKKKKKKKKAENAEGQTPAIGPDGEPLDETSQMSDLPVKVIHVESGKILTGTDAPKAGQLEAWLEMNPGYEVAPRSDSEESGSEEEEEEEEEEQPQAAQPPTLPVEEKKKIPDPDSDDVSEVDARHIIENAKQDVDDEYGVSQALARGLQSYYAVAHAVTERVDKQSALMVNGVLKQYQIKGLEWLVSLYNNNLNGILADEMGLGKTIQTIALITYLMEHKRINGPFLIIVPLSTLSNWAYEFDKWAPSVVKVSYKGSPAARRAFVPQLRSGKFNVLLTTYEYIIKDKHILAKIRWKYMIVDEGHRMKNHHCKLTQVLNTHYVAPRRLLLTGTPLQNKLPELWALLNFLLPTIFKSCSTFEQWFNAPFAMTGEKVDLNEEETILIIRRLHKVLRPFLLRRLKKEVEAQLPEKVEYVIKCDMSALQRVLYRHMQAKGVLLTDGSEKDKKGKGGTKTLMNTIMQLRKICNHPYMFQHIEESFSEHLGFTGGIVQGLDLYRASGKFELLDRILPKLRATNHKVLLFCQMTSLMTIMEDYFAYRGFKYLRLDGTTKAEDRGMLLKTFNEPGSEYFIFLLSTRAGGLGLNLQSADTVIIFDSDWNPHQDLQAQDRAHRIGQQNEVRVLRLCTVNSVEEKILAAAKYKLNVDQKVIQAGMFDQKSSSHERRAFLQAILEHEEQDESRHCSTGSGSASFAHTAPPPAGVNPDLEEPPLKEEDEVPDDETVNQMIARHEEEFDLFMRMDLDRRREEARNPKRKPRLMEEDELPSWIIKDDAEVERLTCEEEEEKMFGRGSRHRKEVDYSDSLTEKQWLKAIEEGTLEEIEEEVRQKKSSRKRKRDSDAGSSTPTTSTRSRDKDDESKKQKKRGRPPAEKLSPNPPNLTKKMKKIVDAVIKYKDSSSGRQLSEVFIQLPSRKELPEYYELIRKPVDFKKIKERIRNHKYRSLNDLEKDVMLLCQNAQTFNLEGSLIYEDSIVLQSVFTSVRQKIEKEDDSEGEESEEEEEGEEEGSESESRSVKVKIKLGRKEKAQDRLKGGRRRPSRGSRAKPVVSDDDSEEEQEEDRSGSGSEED
Method: SMARCA4 HiBiT degradation assay in HeLa cells
Type: cell-based
Conditions: HeLa, 18 hours
# Dmax listing for each entry below
Recorded Endpoint: Dmax

O=C1CCC(N2Cc3ccc(N4CCN(CC5CCN(C(=O)N6CCN7c8cc(-c9cc(F)cc(F)c9O)nnc8NC[C@H]7C6)CC5)CC4)cc3C2=O)C(=O)N1 (some centres unmarked)    < 50%
CC1(C)CN(CC2CCN(c3ccc4c(c3)C(=O)N(C3CCC(=O)NC3=O)C4)CC2)CCN1C(=O)N1CCN2c3cc(-c4cccc(F)c4O)nnc3NCC2(C)C1 (mixture of isomers)    > 75%
C[C@@H]1CN(CC2CCN(c3ccc4c(c3)C(=O)N([C@H]3CCC(=O)NC3=O)C4)CC2)[C@@H](C)CN1C(=O)N1CCN2c3cc(-c4cccc(F)c4O)nnc3NC[C@]2(C(F)F)C1    50 to 75%
C[C@@H]1CN(CC2CCN(c3ccc4c(c3)C(=O)N([C@H]3CCC(=O)NC3=O)C4)CC2)C[C@H](C)N1C(=O)N1CCN2c3cc(-c4cc(F)cc(F)c4O)nnc3NC[C@H]2C1    50 to 75%
C[C@@H]1CN(CC2CCN(c3ccc4c(c3)C(=O)N(C3CCC(=O)NC3=O)C4=O)CC2)C[C@H](C)N1C(=O)N1CCN2c3cc(-c4cc(F)cc(F)c4O)nnc3NCC2(C)C1 (some centres unmarked)    > 75%
